Cited source for all entries: patent US20250034269A1

- experimental-system: T1, human LTBR on cells (human, UniProt P36941 31-435)
- T1 construct: also called recombinant human LTBR CHO cells; CHO-K1 cells overexpressing human LTBR
- assay-text: FACS CHO-huLTBR, 0.0001 µg/ml
parameter-measured: MFI (MFI)

• P1AE9459 (antibody, human IgG1, kappa, L234A L235A, V domains shown, human IgG1 PG LALA; from transgenic rabbit immunization) VH: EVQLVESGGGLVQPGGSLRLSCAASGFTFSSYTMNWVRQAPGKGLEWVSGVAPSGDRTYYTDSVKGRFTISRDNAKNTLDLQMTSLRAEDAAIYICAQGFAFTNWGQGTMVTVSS VL: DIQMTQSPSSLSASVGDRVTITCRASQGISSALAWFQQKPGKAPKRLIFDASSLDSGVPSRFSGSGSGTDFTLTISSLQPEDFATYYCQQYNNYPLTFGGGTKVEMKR = 841
• P1AE9457 (antibody, human IgG1, kappa, L234A L235A, V domains shown, human IgG1 PG LALA; from transgenic rabbit immunization; also called LTBR (9457)) VH: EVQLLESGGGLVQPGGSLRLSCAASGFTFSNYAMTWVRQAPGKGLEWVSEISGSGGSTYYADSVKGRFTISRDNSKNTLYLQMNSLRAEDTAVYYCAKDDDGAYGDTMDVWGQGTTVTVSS VL: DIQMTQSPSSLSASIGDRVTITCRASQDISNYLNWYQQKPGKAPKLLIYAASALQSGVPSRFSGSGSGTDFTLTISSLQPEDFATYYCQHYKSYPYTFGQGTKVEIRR = 1260
• P1AE1873 (CBE11) (antibody, human IgG1, kappa, L234A L235A, V domains shown) VH: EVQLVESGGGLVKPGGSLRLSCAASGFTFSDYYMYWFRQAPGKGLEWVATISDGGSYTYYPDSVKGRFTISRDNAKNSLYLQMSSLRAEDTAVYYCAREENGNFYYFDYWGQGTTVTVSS VL: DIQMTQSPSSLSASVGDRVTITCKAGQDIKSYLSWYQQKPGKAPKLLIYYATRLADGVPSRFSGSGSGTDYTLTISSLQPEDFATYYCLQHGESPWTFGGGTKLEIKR = 1090
• P1AF0079 (antibody, human IgG1, kappa, L234A L235A, V domains shown, human IgG1 PG LALA; from transgenic rabbit immunization; also called LTBR (0079)) VH: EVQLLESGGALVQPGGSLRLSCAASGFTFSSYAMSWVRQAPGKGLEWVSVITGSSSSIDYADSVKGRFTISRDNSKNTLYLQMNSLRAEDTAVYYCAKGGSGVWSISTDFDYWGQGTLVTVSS VL: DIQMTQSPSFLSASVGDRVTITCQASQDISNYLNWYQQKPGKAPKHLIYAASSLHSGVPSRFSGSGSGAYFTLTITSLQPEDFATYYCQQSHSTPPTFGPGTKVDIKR = 710
